assayOverview: Intrinsic clearance in rat liver microsomes
Type: ADME, Microsome
measurementContext: read-out: CLH

>  <testSmiles>
Cc1cn([C@H]2CCCN(S(=O)(=O)c3ccc(O)c(Oc4cccc(Cl)c4)c3)C2)c(=O)[nH]c1=O

>  <microsomal CLint, µL/min/mg>
27

$$$$

* * *

measuredTarget: Cytochrome P450 1A2 (Homo sapiens, UniProt P05177)
Sequence (P05177 whole entry): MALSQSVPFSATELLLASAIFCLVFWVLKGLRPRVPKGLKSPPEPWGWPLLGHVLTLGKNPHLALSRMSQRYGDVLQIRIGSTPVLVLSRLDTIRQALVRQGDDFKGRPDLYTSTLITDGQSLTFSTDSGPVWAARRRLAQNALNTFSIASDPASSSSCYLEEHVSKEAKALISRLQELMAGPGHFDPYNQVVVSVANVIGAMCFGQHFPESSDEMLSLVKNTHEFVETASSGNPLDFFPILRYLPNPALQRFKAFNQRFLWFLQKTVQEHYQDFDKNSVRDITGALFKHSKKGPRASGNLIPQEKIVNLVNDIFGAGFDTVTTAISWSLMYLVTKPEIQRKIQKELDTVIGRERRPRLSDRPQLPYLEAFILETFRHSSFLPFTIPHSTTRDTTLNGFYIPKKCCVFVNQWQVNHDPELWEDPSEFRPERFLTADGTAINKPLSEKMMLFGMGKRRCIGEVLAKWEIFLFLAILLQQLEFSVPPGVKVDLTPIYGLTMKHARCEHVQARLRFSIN
parameter: IC50

>  <testSmiles>
Cc1cn([C@H]2CCCN(S(=O)(=O)c3ccc(O)c(Oc4cccc(Cl)c4)c3)C2)c(=O)[nH]c1=O

>  <endpointResult>
> 20 µM

$$$$

* * *

measuredTarget: Voltage-gated inwardly rectifying potassium channel KCNH2 (Homo sapiens)
Sequence (Q12809 whole entry): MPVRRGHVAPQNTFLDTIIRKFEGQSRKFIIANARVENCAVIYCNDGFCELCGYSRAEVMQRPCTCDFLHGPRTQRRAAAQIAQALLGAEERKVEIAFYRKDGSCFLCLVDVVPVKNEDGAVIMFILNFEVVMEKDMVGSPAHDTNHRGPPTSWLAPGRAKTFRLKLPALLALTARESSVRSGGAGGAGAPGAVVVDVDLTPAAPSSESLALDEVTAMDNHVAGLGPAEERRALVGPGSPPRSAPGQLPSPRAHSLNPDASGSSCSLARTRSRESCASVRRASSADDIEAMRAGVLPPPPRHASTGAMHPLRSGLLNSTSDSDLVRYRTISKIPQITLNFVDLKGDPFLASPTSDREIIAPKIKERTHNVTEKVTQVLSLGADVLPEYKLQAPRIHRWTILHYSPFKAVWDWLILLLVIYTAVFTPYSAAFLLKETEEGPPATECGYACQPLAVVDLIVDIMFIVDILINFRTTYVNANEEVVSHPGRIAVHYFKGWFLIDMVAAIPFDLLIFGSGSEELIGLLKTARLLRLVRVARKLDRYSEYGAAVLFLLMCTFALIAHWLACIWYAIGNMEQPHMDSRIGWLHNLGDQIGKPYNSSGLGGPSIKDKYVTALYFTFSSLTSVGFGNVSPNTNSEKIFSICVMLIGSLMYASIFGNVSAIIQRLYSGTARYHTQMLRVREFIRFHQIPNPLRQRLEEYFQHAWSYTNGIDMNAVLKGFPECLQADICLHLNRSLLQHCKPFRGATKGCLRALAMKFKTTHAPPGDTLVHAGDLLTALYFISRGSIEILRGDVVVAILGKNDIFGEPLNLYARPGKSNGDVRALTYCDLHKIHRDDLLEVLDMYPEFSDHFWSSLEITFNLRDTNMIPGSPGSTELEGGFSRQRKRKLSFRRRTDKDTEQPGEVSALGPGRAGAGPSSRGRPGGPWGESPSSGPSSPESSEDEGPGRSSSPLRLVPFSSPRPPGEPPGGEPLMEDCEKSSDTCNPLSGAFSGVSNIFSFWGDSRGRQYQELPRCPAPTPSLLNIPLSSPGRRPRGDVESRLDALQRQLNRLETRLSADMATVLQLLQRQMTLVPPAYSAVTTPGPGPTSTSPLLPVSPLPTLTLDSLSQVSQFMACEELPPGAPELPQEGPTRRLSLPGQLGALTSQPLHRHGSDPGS
parameter: IC50 (µM)

>  <testSmiles>
Cc1cn([C@H]2CCCN(S(=O)(=O)c3ccc(O)c(Oc4cccc(Cl)c4)c3)C2)c(=O)[nH]c1=O

>  <endpointResult>
27

$$$$
